# Test name: Solubility of sirolimus in aqueous media, solvents and benzyl benzoate/ethanol mixtures
# Type: physicochemical
# Condition set: PBS with 0.1% SDS, aqueous with cosolvent or surfactant or cyclodextrin; PBS, 0.1% SDS, pH 7.4; ambient temperature; read-out: Solubility
Assay metric: solubility (µg/mL)
// units = µg/mL; emit number, no label

Query: Any idea what solubility was measured for "CO[C@H]1C[C@@H]2CC[C@@H](C)[C@@](O)(O2)C(=O)C(=O)N2CCCC[C@H]2C(=O)O[C@H]([C@H](C)C[C@@H]2CC[C@@H](O)[C@H](OC)C2)CC(=O)[C@H](C)/C=C(\C)[C@@H](O)[C@@H](OC)C(=O)[C@H](C)C[C@H](C)/C=C/C=C/C=C/1C" ?
Reply: 230

====

# Test name: Solubility of sirolimus in aqueous media, solvents and benzyl benzoate/ethanol mixtures
# Type: physicochemical
# Condition set: benzyl benzoate/ethanol mixture, organic solvent or mixture; BB/EtOH Ratio 18; room temperature; read-out: Solubility in Benzyl Benzoate/Ethanol
Assay metric: solubility (mg/mL)
// units = mg/mL; emit number, no label

Query: Any idea what solubility was measured for "CO[C@H]1C[C@@H]2CC[C@@H](C)[C@@](O)(O2)C(=O)C(=O)N2CCCC[C@H]2C(=O)O[C@H]([C@H](C)C[C@@H]2CC[C@@H](O)[C@H](OC)C2)CC(=O)[C@H](C)/C=C(\C)[C@@H](O)[C@@H](OC)C(=O)[C@H](C)C[C@H](C)/C=C/C=C/C=C/1C" ?
Reply: 85.6

====

# Test name: Solubility of sirolimus in aqueous media, solvents and benzyl benzoate/ethanol mixtures
# Assay type: physicochemical
# Condition set: organic solvent or mixture; PEG 400; ambient temperature; read-out: Solubility
Assay metric: solubility (mg/mL)
// units = mg/mL; emit number, no label

Query: Any idea what solubility was measured for CO[C@H]1C[C@@H]2CC[C@@H](C)[C@@](O)(O2)C(=O)C(=O)N2CCCC[C@H]2C(=O)O[C@H]([C@H](C)C[C@@H]2CC[C@@H](O)[C@H](OC)C2)CC(=O)[C@H](C)/C=C(\C)[C@@H](O)[C@@H](OC)C(=O)[C@H](C)C[C@H](C)/C=C/C=C/C=C/1C [Sirolimus, sirolimus] ?
Reply: 10.7

====

# Test name: Solubility of sirolimus in aqueous media, solvents and benzyl benzoate/ethanol mixtures
# Assay type: physicochemical
# Condition set: organic solvent or mixture; Propylene glycol; ambient temperature; read-out: Solubility
Assay metric: solubility (mg/mL)
// units = mg/mL; emit number, no label

Query: Any idea what solubility was measured for "CO[C@H]1C[C@@H]2CC[C@@H](C)[C@@](O)(O2)C(=O)C(=O)N2CCCC[C@H]2C(=O)O[C@H]([C@H](C)C[C@@H]2CC[C@@H](O)[C@H](OC)C2)CC(=O)[C@H](C)/C=C(\C)[C@@H](O)[C@@H](OC)C(=O)[C@H](C)C[C@H](C)/C=C/C=C/C=C/1C" ?
Reply: 11.8

====

# Test name: Solubility of sirolimus in aqueous media, solvents and benzyl benzoate/ethanol mixtures
# Type: physicochemical
# Condition set: benzyl benzoate/ethanol mixture, organic solvent or mixture; BB/EtOH Ratio 7; room temperature; read-out: Solubility in Benzyl Benzoate/Ethanol
Assay metric: solubility
Phrase the answer as number then unit, nothing more needed.

Query: Any idea what solubility was measured for CO[C@H]1C[C@@H]2CC[C@@H](C)[C@@](O)(O2)C(=O)C(=O)N2CCCC[C@H]2C(=O)O[C@H]([C@H](C)C[C@@H]2CC[C@@H](O)[C@H](OC)C2)CC(=O)[C@H](C)/C=C(\C)[C@@H](O)[C@@H](OC)C(=O)[C@H](C)C[C@H](C)/C=C/C=C/C=C/1C [Sirolimus, sirolimus] ?
Reply: 163 mg/mL

====

# Test name: Solubility of sirolimus in aqueous media, solvents and benzyl benzoate/ethanol mixtures
# Type: physicochemical
# Condition set: organic solvent or mixture; Benzyl alcohol (BA); ambient temperature; read-out: Solubility
Assay metric: solubility

Query: Any idea what solubility was measured for "CO[C@H]1C[C@@H]2CC[C@@H](C)[C@@](O)(O2)C(=O)C(=O)N2CCCC[C@H]2C(=O)O[C@H]([C@H](C)C[C@@H]2CC[C@@H](O)[C@H](OC)C2)CC(=O)[C@H](C)/C=C(\C)[C@@H](O)[C@@H](OC)C(=O)[C@H](C)C[C@H](C)/C=C/C=C/C=C/1C" ?
Reply: ≥ 387 mg/mL
